Entry source: ChEMBL document CHEMBL1201862

Tested on: KM12
Experiment: NCI tumour cell line growth inhibition, 48 h
Counter-ions that a name gives are not always drawn. Calls of active or inactive are those of the source. No stated cut-off is given here; in the data, active = GI50 up to about 1.1 µM and inactive = higher.
Give one outcome, nothing more. List: active, inactive

compound	label
O=C(Cc1ccc(O)c(O)c1)NCc1c[nH]c2ccccc12	inactive
COc1cc(C=O)ccc1Oc1nnnn1-c1ccccc1	inactive

Ask: Would you mind telling me which call this test gave COc1ccc(C(=O)N2CCc3c([nH]c4ccccc34)C2C(=O)O)o1 (configuration not stated) ?
Reply: inactive

Ask: Would you mind telling me which call this test gave O=C1CC(c2ccsc2)n2cccc21 (configuration not stated) ?
Reply: inactive

Ask: Would you mind telling me which call this test gave CN/C(=N/C#N)NCc1ccccc1 ?
Reply: inactive

Ask: Would you mind telling me which call this test gave O=S1(=O)OCCOS(=O)(=O)C1(F)Br ?
Reply: inactive

Ask: Would you mind telling me which call this test gave Nc1ccc(S(=O)(=O)Nc2nc3ccccc3nc2N2CCCCCC2)cc1 ?
Reply: inactive

Ask: Would you mind telling me which call this test gave c1ccc(C/C(=N\Nc2nc3ccccc3o2)c2ccccn2)cc1 ?
Reply: active

Ask: Would you mind telling me which call this test gave Cc1ccccc1N/C(=C(/C(Cl)=C(Cl)Cl)[N+](=O)[O-])n1nnc2ccccc21 ?
Reply: inactive

Ask: Would you mind telling me which call this test gave NCCCCN [PUTRESCINE HYDROCHLORIDE] ?
Reply: inactive

Ask: Would you mind telling me which call this test gave C[N+]12c3ccccc3O[B-]1(c1ccccc1)Oc1ccccc12 (configuration not stated) ?
Reply: inactive

Ask: Would you mind telling me which call this test gave CCOC(=O)C1(Cc2ccc(C)cc2)Cc2ccc(C)cc2C1=O (configuration not stated) ?
Reply: inactive

---

System: NCI-H522
Experiment: NCI tumour cell line growth inhibition, 48 h
Active and inactive are the calls of the source. No stated cut-off is given here; in the data, active = GI50 up to about 1.1 µM and inactive = higher.
Give one outcome, nothing more. List: true for active, false for inactive

compound	label
CNN1C(=O)c2c(N)c(C#N)c(-c3ccccc3)c(-c3ccccc3)c2C1=O	false
Cc1nc2ccccc2nc1CC(=O)C(=O)Nc1ccc(Cl)cc1Cl	false
COc1ccc(CC2C(=O)NC(C)C(=O)N(C)C3C(=O)N(C)C(Cc4ccc(O)c(c4)Oc4ccc(cc4)C3O)C(=O)NC(C)C(=O)NC(C)C(=O)N2C)cc1 (stereo not given)	true
NC1C2(CCCCCC2)NC(=O)C12CCCCCC2 (stereo not given)	false

Ask: Would you mind telling me which call this test gave COC(=O)/C(=N/NC(C)(C)C)C(C(=O)OC)C(=O)C(=O)Nc1nc2ccc([N+](=O)[O-])cc2s1 (stereo not given) ?
Reply: false

---

Tested on: CCRF-CEM
Experiment: NCI tumour cell line growth inhibition, 48 h
Activity calls are given as the source filed them. Cut-off read from the data, not from the text of the source: active = GI50 up to about 1.1 µM and inactive = higher.
endpoint label: GI50

Ask: Bench note: what GI50 did O=C(CN1CCCCC1)Nc1ccc2sc3ccccc3c(=O)c2n1 show?
Reply: 5.92 µM (inactive)

Ask: Bench note: what GI50 did O=C(O)CN1CCNCCN(CC(=O)O)CCN(CC(=O)O)CCNCC1 show?
Reply: > 100 µM (inactive)

Ask: Bench note: what GI50 did CN/C(=N/C#N)NCc1ccccc1 show?
Reply: > 100 µM (inactive)

Ask: Bench note: what GI50 did COC(=O)CCCC(=O)/C(=N\Nc1ccc(Cl)cc1)Nc1c(Cl)cccc1Cl show?
Reply: 26.2 µM (inactive)

---

System: SNB-75
Assay: NCI tumour cell line growth inhibition, 48 h
Activity calls are given as the source filed them. No stated cut-off is given here; in the data, active = GI50 up to about 1.1 µM and inactive = higher.
Give one outcome, nothing more. List: Yes for active, No for inactive

# example entries with known answers
>>> df
                                   compound  test_system  label
0    O=C(Cc1ccc(O)c(O)c1)NCc1c[nH]c2ccccc12       SNB-75     No
1                     O=c1[nH]cnc2[nH]nnc12       SNB-75     No
2  Cc1cc(O)c(C(O)c2ccccn2)cc1O (stereo not drawn)       SNB-75     No

Ask: Would you mind telling me which call this test gave O=C1Nc2c(Cl)cccc2/C1=N/Nc1ccccc1[N+](=O)[O-] ?
Reply: No

Ask: Would you mind telling me which call this test gave COC(=O)CC(C(C(=O)OCc1ccccc1)C(C)O)N1C(=O)OCC1c1ccccc1 (stereo not drawn) ?
Reply: No

Ask: Would you mind telling me which call this test gave COc1ccc(NC(=O)/C(=C/c2ccccc2)C(C)=O)cc1 ?
Reply: No

Ask: Would you mind telling me which call this test gave Cc1cn(C2CC(O)C(COC(=O)NCCC(F)(F)C(F)(F)C(F)(F)C(F)(F)F)O2)c(=O)[nH]c1=O (stereo not drawn) ?
Reply: No

Ask: Would you mind telling me which call this test gave N#C[C@]12CC3(CC[C@H]1CC1(C2)OCCO1)OCCO3 ?
Reply: No

Ask: Would you mind telling me which call this test gave O=C(Nc1ccc(C(F)(F)F)cc1[N+](=O)[O-])C(=O)Nn1c(S)nc2ccccc2c1=O ?
Reply: No

---

Test system: XF498
Test: NCI tumour cell line growth inhibition, 48 h
The source made the active and inactive calls. No stated cut-off is given here; in the data, active = GI50 up to about 1.1 µM and inactive = higher.
endpoint label: GI50

Recorded GI50, per entry:
>>> df
                                   molecule                value
0  CC1OC(n2cc(F)c(=O)[nH]c2=O)C=CC1O (stereo not drawn)  > 100 µM (inactive)
1   CC(=O)NC1=C(NC(C)(C)C)C(=O)c2ccccc2C1=O   11.1 µM (inactive)

Field: next molecule
Ask: Bench note: what GI50 did Cn1cc(C(=O)C[n+]2ccccc2)c2ccccc21 show?
Reply: 86.9 µM (inactive)

---

Test system: SK-MEL-2
Assay: NCI tumour cell line growth inhibition, 48 h
Calls of active or inactive are those of the source. No stated cut-off is given here; in the data, active = GI50 up to about 1.1 µM and inactive = higher.
Give one outcome, nothing more. List: T for active, F for inactive

# example entries with known answers
compound	label
O=C(O)CN1CCNCCN(CC(=O)O)CC1	F
C/C=N\N1C(=O)c2ccccc2C1=O	F
CC1(C)C2CCC(N)(C2)C1N (stereo not drawn)	F
C=C[Si](C)(C)COC(=O)/C(C#N)=C/C=C/c1ccccc1	F
C=C(C[N+](C)(C)C)N/N=C/c1oc(-c2ccc(OC)c(OC)c2)c(-c2ccc(OC)c(OC)c2)c1[N+](=O)[O-]	F
NCCCn1c2ccccc2c2c3c(c4c(c21)CCC(O)CC4)C(=O)NC3=O (stereo not drawn)	F
CC(NC(=O)c1ccc(NP(=O)(OCc2ccc([N+](=O)[O-])o2)N(C)CCCCCl)cc1)c1ccc(OCC2CCCCC2)c(C(N)=O)c1 (stereo not drawn)	F
CN(C(=O)c1cccs1)C(=S)N1CCN(c2ccccc2)CC1	F

Ask: Would you mind telling me which call this test gave COc1cc2ccc1-c1cc(ccc1O)CC1c3cc4c(cc3CCN1C)Oc1c(OC)cc3c(c1O4)C(C2)N(C)CC3 (stereo not drawn) ?
Reply: F

Ask: Would you mind telling me which call this test gave CN(C)Cc1cc(/C(=C(\C#N)c2ccccc2)c2ccc(O)cc2)ccc1O ?
Reply: F

Ask: Would you mind telling me which call this test gave O=C(/C=C/NC(=O)OCc1ccccc1)OCc1ccccc1 ?
Reply: F

Ask: Would you mind telling me which call this test gave O=C1c2ccccc2-c2ccc(O)cc21 ?
Reply: F

Ask: Would you mind telling me which call this test gave CC(NC1=CC(=O)c2cccnc2C1=O)C(O)c1ccccc1 (stereo not drawn) ?
Reply: F

Ask: Would you mind telling me which call this test gave CN(NC(=O)CCCl)C1=NCCN1 ?
Reply: F

---

Measured GI50, listed per entry for reference.
Test system: OVCAR-4
Assay: NCI tumour cell line growth inhibition, 48 h
Activity calls are given as the source filed them. Cut-off read from the data, not from the text of the source: active = GI50 up to about 1.1 µM and inactive = higher.

Recorded GI50, per entry:
In [3]: df
Out[3]:
                                   compound  endpoint_label                value
0     Cc1noc(/N=C2\C=C(O)C(=O)c3ccccc32)c1C            GI50   19.5 µM (inactive)
1       Cc1cccc(/N=N/c2ccc(O)c(CN(C)C)c2)c1            GI50   55.3 µM (inactive)
2  COC(=O)[C@@H]1C[C@]2(CC=C(C)C)c3ccccc3N(S(=O)(=O)c3ccccc3)[C@@H]2N1C(=O)OC            GI50   18.1 µM (inactive)
3  CN(C)Cc1cc(/C(=C(\C#N)c2ccccc2)c2ccc(O)cc2)ccc1O            GI50   21.5 µM (inactive)
4   CCc1ccccc1NC(=O)c1cccc([N+](=O)[O-])c1O            GI50   16.7 µM (inactive)
5             COC(=O)Nc1nc(=O)c2ccccc2[nH]1            GI50  > 100 µM (inactive)
6  CC(O)c1c2c(cc3c1CC1(C3)Cc3cc4c(c(C(C)O)c3C1)CCC4)CCC2 (stereo not given)            GI50   2.86 µM (inactive)
7  COc1cc(Nc2nc3c(N)cc(C(F)(F)F)cc3nc2-c2ccccc2)cc(OC)c1OC            GI50     15 µM (inactive)

Field: next compound
Ask: Bench note: what GI50 did Nc1n[n+](-c2ccccc2)no1 show?
Reply: > 100 µM (inactive)
